The measured values listed here are drawn from paper PMC10945555.

System: biofilm-producing Staphylococcus epidermidis strains
Experiment: Inhibition of biofilm formation (MBIC, resazurin)
Type: cell-based
Test parameters: clinical strain 26 (Table S4)
Readout label: MBIC

For record CC(=O)NC[C@H]1CN(c2ccc(N3CCOCC3)c(F)c2)C(=O)O1 [linezolid, reference compound] the listed MBIC is 50 µg/mL

For record O=S(=O)(NC1CCN(CCC(Oc2ccc(C(F)(F)F)cc2)c2cccs2)CC1)c1cccc(Cl)c1 (stereo not shown) the listed MBIC is 125 µg/mL

For record O=S(=O)(NC1CCN(CCC(Oc2ccc(C(F)(F)F)cc2)c2ccccc2)CC1)c1cccc(Cl)c1 (stereo not shown) the listed MBIC is 125 µg/mL

For record O=C(Nc1cccc(Cl)c1)NC1CCN(CCC(Oc2ccc(C(F)(F)F)cc2)c2cccs2)CC1 (stereo not shown) the listed MBIC is 31.25 µg/mL

###

System: clinical MDR Staphylococcus epidermidis isolates
Experiment: MIC, broth microdilution, 81 clinical MDR strains
Format: cell-based
Test parameters: Staphylococcus epidermidis, clinical strain 17 (Table S2); read-out: MIC
Listing: MIC of selected compounds
Write the value in µg/mL as a bare number.

Compound	Target or system	MIC [µg/mL]
O=S(=O)(NC1CCN(CCC(Oc2ccc(C(F)(F)F)cc2)c2cccs2)CC1)c1cccc(C(F)(F)F)c1 (stereo not drawn)	clinical MDR Staphylococcus epidermidis isolates	50
O=C(Nc1cccc(Cl)c1)NC1CCN(CCC(Oc2ccc(C(F)(F)F)cc2)c2cccs2)CC1 (stereo not drawn)	clinical MDR Staphylococcus epidermidis isolates	1.6

For record O=S(=O)(NC1CCN(CCC(Oc2ccc(C(F)(F)F)cc2)c2cccs2)CC1)c1cccc(Cl)c1 (stereo not drawn) the listed MIC is 3.12

For record O=S(=O)(NC1CCN(CCC(Oc2ccc(C(F)(F)F)cc2)c2cccs2)CC1)c1cccc(Br)c1 (stereo not drawn) the listed MIC is 12.5

For record O=S(=O)(NC1CCN(CCC(Oc2ccc(C(F)(F)F)cc2)c2ccccc2)CC1)c1cccc(Cl)c1 (stereo not drawn) the listed MIC is 3.12

For record CC(=O)NC[C@H]1CN(c2ccc(N3CCOCC3)c(F)c2)C(=O)O1 [linezolid, reference compound] the listed MIC is 0.8

###

Listing: MIC50 of selected compounds
Test system: clinical MDR Staphylococcus epidermidis isolates
Experiment: MIC, broth microdilution, 81 clinical MDR strains
Type: cell-based
Test parameters: Staphylococcus epidermidis; 81 clinical strains; concentration inhibiting growth of 50% clinical isolates
Hey, just the number and the unit after it is fine.

Compound	Target or system	MIC50
O=S(=O)(NC1CCN(CCC(Oc2ccc(C(F)(F)F)cc2)c2ccccc2)CC1)c1cccc(Cl)c1 (stereo not drawn) [Compound 12]	clinical MDR Staphylococcus epidermidis isolates	6.25 µg/mL

Now examine the next entry.
For record O=C(Nc1cccc(Cl)c1)NC1CCN(CCC(Oc2ccc(C(F)(F)F)cc2)c2cccs2)CC1 (stereo not drawn) [Compound 25] the listed MIC50 is 1.6 µg/mL

###

System: clinical MDR Staphylococcus epidermidis isolates
Experiment: MIC, broth microdilution, 81 clinical MDR strains
Type: cell-based
Test parameters: Staphylococcus epidermidis, clinical strain 6 (Table S2); read-out: MIC
Label Met when MIC is strictly below 2 µg/mL; otherwise label Not met.

A selection of reference data follows.
Compound	Target or system	Class label
O=S(=O)(NC1CCN(CCC(Oc2ccc(C(F)(F)F)cc2)c2cccs2)CC1)c1cccc(Cl)c1 (stereo not drawn)	clinical MDR Staphylococcus epidermidis isolates	Met
O=S(=O)(NC1CCN(CCC(Oc2ccc(C(F)(F)F)cc2)c2ccccc2)CC1)c1cccc(Cl)c1 (stereo not drawn)	clinical MDR Staphylococcus epidermidis isolates	Not met
CC(=O)NC[C@H]1CN(c2ccc(N3CCOCC3)c(F)c2)C(=O)O1 [linezolid, reference compound]	clinical MDR Staphylococcus epidermidis isolates	Met
O=S(=O)(NC1CCN(CCC(Oc2ccc(C(F)(F)F)cc2)c2cccs2)CC1)c1cccc(Br)c1 (stereo not drawn)	clinical MDR Staphylococcus epidermidis isolates	Not met
O=C(Nc1cccc(Cl)c1)NC1CCN(CCC(Oc2ccc(C(F)(F)F)cc2)c2cccs2)CC1 (stereo not drawn)	clinical MDR Staphylococcus epidermidis isolates	Met

Prompt: Strictly below 2 µg/mL: is that where MIC of O=S(=O)(NC1CCN(CCC(Oc2ccc(C(F)(F)F)cc2)c2cccs2)CC1)c1cccc(C(F)(F)F)c1 (stereo not drawn) sits?
Response: Not met

###

Listing: MBIC of selected compounds
Tested on: biofilm-producing Staphylococcus epidermidis strains
Experiment: Inhibition of biofilm formation (MBIC, resazurin)
Assay type: cell-based
Test parameters: S. epidermidis ATCC 35984 (Table S4)
Write the value in µg/mL as a bare number.

For orientation, consider the following solved cases.
Compound	MBIC, µg/mL
CC(=O)NC[C@H]1CN(c2ccc(N3CCOCC3)c(F)c2)C(=O)O1 [linezolid, reference compound]	15.6
O=S(=O)(NC1CCN(CCC(Oc2ccc(C(F)(F)F)cc2)c2cccs2)CC1)c1cccc(Cl)c1 (stereo not shown)	31.25
O=S(=O)(NC1CCN(CCC(Oc2ccc(C(F)(F)F)cc2)c2ccccc2)CC1)c1cccc(Cl)c1 (stereo not shown)	31.25

Now examine the next entry.
For record O=C(Nc1cccc(Cl)c1)NC1CCN(CCC(Oc2ccc(C(F)(F)F)cc2)c2cccs2)CC1 (stereo not shown) the listed MBIC is 7.8

###

System: clinical MDR Staphylococcus epidermidis isolates
Experiment: MIC, broth microdilution, 81 clinical MDR strains
Format: cell-based
Test parameters: Staphylococcus epidermidis, clinical strain 26 (Table S2); read-out: MIC
Method: 2 Biological assay protocols Microbiological tests were carried out under aseptic conditions in a laminar chamber of the 2nd […] (BioTectum 1.2, Alchem Poland). […] 2.2 Effect of evaluated compounds on planktonic cells […] Table S1) and 81 clinical MDR S. epidermidis (Table S2) to the tested compounds was assessed by determining the MIC value (Minimal Inhibitory Concentration) by microdilution in a liquid medium in 96-well flat-bottom cell culture plates (Nest Biotechnology Scientific, USA). […]
Listing: MIC of selected compounds
Write the value in µg/mL as a bare number.

For orientation, consider the following solved cases.
Compound	Recorded number
O=S(=O)(NC1CCN(CCC(Oc2ccc(C(F)(F)F)cc2)c2cccs2)CC1)c1cccc(Cl)c1 (stereo not drawn)	6.25
CC(=O)NC[C@H]1CN(c2ccc(N3CCOCC3)c(F)c2)C(=O)O1 [linezolid, reference compound]	0.8
O=S(=O)(NC1CCN(CCC(Oc2ccc(C(F)(F)F)cc2)c2cccs2)CC1)c1cccc(C(F)(F)F)c1 (stereo not drawn)	50

For record O=S(=O)(NC1CCN(CCC(Oc2ccc(C(F)(F)F)cc2)c2cccs2)CC1)c1cccc(Br)c1 (stereo not drawn) the listed MIC is 50

For record O=S(=O)(NC1CCN(CCC(Oc2ccc(C(F)(F)F)cc2)c2ccccc2)CC1)c1cccc(Cl)c1 (stereo not drawn) the listed MIC is 12.5

For record O=C(Nc1cccc(Cl)c1)NC1CCN(CCC(Oc2ccc(C(F)(F)F)cc2)c2cccs2)CC1 (stereo not drawn) the listed MIC is 1.6

###

Test system: biofilm-producing Staphylococcus epidermidis strains
Experiment: Biofilm eradication (MBEC Assay Kit)
Format: cell-based
Test parameters: clinical strain 51 (Table S4)
Readout label: MBEC (µg/mL)
Write the value in µg/mL as a bare number.

Bench note, biofilm-producing Staphylococcus epidermidis strains: entry O=C(Nc1cccc(Cl)c1)NC1CCN(CCC(Oc2ccc(C(F)(F)F)cc2)c2cccs2)CC1 (stereo not shown) , its MBEC = 31.25

Bench note, biofilm-producing Staphylococcus epidermidis strains: entry O=S(=O)(NC1CCN(CCC(Oc2ccc(C(F)(F)F)cc2)c2ccccc2)CC1)c1cccc(Cl)c1 (stereo not shown) , its MBEC = 250

Bench note, biofilm-producing Staphylococcus epidermidis strains: entry O=S(=O)(NC1CCN(CCC(Oc2ccc(C(F)(F)F)cc2)c2cccs2)CC1)c1cccc(Cl)c1 (stereo not shown) , its MBEC = 125

Bench note, biofilm-producing Staphylococcus epidermidis strains: entry CC(=O)NC[C@H]1CN(c2ccc(N3CCOCC3)c(F)c2)C(=O)O1 [linezolid, reference compound] , its MBEC = 50

###

Tested on: clinical MDR Staphylococcus epidermidis isolates
Experiment: MIC, broth microdilution, 81 clinical MDR strains
Format: cell-based
Test parameters: Staphylococcus epidermidis, clinical strain 50 (Table S2); read-out: MIC
Listing: MIC of selected compounds
Write the value in mg/L as a bare number.

Compound	MIC, mg/L
CC(=O)NC[C@H]1CN(c2ccc(N3CCOCC3)c(F)c2)C(=O)O1 [linezolid, reference compound]	0.2
O=C(Nc1cccc(Cl)c1)NC1CCN(CCC(Oc2ccc(C(F)(F)F)cc2)c2cccs2)CC1 (stereo not drawn) [Compound 25]	3.12
O=S(=O)(NC1CCN(CCC(Oc2ccc(C(F)(F)F)cc2)c2cccs2)CC1)c1cccc(Br)c1 (stereo not drawn) [Compound 18]	50
O=S(=O)(NC1CCN(CCC(Oc2ccc(C(F)(F)F)cc2)c2cccs2)CC1)c1cccc(Cl)c1 (stereo not drawn) [Compound 14]	50
O=S(=O)(NC1CCN(CCC(Oc2ccc(C(F)(F)F)cc2)c2ccccc2)CC1)c1cccc(Cl)c1 (stereo not drawn) [Compound 12]	50

Now examine the next entry.
For record O=S(=O)(NC1CCN(CCC(Oc2ccc(C(F)(F)F)cc2)c2cccs2)CC1)c1cccc(C(F)(F)F)c1 (stereo not drawn) [Compound 21] the listed MIC is 50
